Molecular target: T1, Human TROP2 ECD (31-274 AA), biotinylated (human, UniProt P09758 31-274, biotinylated (site not stated))
T1 construct: also called tumor-associated calcium signal transducer 2; Human TROP2-biotin
T1 sequence: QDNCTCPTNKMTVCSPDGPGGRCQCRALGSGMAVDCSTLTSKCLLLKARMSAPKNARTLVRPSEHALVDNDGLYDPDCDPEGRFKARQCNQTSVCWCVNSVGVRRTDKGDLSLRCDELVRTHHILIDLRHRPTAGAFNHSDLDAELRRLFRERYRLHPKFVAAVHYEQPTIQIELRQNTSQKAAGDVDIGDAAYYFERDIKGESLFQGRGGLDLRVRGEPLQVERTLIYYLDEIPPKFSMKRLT
Assay: BLI (Octet), biotinylated human TROP2 ECD on SAX sensor, Fab 6.25-50 nM
parameterMeasured: Kd (nM)
Report the figure in nM without appending any unit label.

For TBD-17 (anti-TROP2 Fab, HC S104A) (Fab, V domains shown, also called TBD-17 (HC S104A mutant)) VH: QVQLQQSGSELKKPGASVKVSCKASGYTFTNYGMNWVKQAPGQGLKWMGWINTYTGEPTYTDDFKGRFAFSLDTSVSTAYLQISSLKADDTAVYFCARGGFGSAYWYFDVWGQGSLVTVSS VL: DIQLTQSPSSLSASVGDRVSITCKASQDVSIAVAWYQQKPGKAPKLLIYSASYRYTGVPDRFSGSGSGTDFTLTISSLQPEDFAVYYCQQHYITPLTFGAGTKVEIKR the binder record lists Kd as 0.9
